meta.source: paper PMC7031696

What pIC50 was measured for each of the following?
# System: Plasmodium falciparum 3D7-A10 parasites
# protocol: Stage specificity assay (8-h exposure of synchronized stages, IC50^8h)
# Type: cell-based
# conditionDescription: Plasmodium falciparum, 3D7, read-out: Late rings Mean IC50 (IC50^8h), 8-h exposure 8–16 hr, 3D7-A10, survival at 60 h
Worth noting: pIC50 values are minus log10 of concentrations stated in mol/L.

Prompt: I'd like to know its pIC50. The compound in question is COc1ccc(C2c3ccc4ccccc4c3Oc3ncn(CCCN(C)C)c(=N)c32)cc1 (stereo not shown)
Response: 5.90

Prompt: I'd like to know its pIC50. The compound in question is CC(C)(C)OC(=O)N1CCN(c2ccccc2NC(=O)c2cccc(C(F)(F)F)c2Oc2ccc(F)cc2)CC1
Response: 4.94

Prompt: I'd like to know its pIC50. The compound in question is COc1cncc(-c2cncc(N3CCN(c4ccncc4)CC3)n2)c1
Response: 6.31

Prompt: I'd like to know its pIC50. The compound in question is CNc1nc(NCCCN(C)C)c2sc(-c3cccc(C(F)(F)F)c3)cc2n1
Response: 7.01

---

# Tested on: Plasmodium falciparum 3D7-A10 parasites
# protocol: Stage specificity assay (8-h exposure of synchronized stages, IC50^8h)
# Assay type: cell-based
# conditionDescription: Plasmodium falciparum, 3D7, read-out: Late rings Mean IC50 (IC50^8h), 8-h exposure 8–16 hr, 3D7-A10, survival at 60 h
reportedMetric: IC50

Prompt: Give the reported IC50 for O=C(Nc1ccc(N2CCNCC2)cc1)c1ccn2ncc(-c3cccc(Cl)c3)c2n1.O=C(O)C(F)(F)F [MMV022478] (system: Plasmodium falciparum 3D7-A10 parasites).
Response: 4870 nM

Prompt: Give the reported IC50 for OC(c1cc(C(F)(F)F)nc2c(C(F)(F)F)cccc12)C1CCCCN1 (stereo not drawn) [Mefloquine, reference compound] (system: Plasmodium falciparum 3D7-A10 parasites).
Response: 147 nM

Prompt: Give the reported IC50 for CC(C)C[C@@H](/C=C/S(C)(=O)=O)NC(=O)[C@H](CC(C)C)NC(=O)[C@H](Cc1c[nH]c2ccccc12)NC(=O)CN1CCOCC1 [WLL-vs, reference compound] (system: Plasmodium falciparum 3D7-A10 parasites).
Response: 29.4 nM

Prompt: Give the reported IC50 for Clc1ccc2c(N3CCN(CCCN4CCN(c5ccnc6cc(Cl)ccc56)CC4)CC3)ccnc2c1 [Piperaquine, reference compound] (system: Plasmodium falciparum 3D7-A10 parasites).
Response: 46.3 nM

Prompt: Give the reported IC50 for FC(F)(F)c1cccc(Nc2nc3ccccc3nc2Nc2cccc(C(F)(F)F)c2)c1 [MMV665794] (system: Plasmodium falciparum 3D7-A10 parasites).
Response: 590 nM

Prompt: Give the reported IC50 for CCCCN(CCCC)CC(O)c1cc(Cl)cc2c1-c1ccc(Cl)cc1/C2=C/c1ccc(Cl)cc1 (stereo not drawn) [Lumefantrine, reference compound] (system: Plasmodium falciparum 3D7-A10 parasites).
Response: 15.8 nM

Prompt: Give the reported IC50 for CN(C)c1ccc2nc3ccc(=[N+](C)C)cc-3sc2c1 [Methylene blue, reference compound] (system: Plasmodium falciparum 3D7-A10 parasites).
Response: 13.3 nM

Prompt: Give the reported IC50 for C[C@H]1[C@@H](O)O[C@@H]2O[C@@]3(C)CC[C@H]4[C@H](C)CC[C@@H]1[C@@]24OO3 [Dihydroartemisinin, reference compound] (system: Plasmodium falciparum 3D7-A10 parasites).
Response: 2.4 nM

Prompt: Give the reported IC50 for FC(F)(F)c1ccc(Nc2cc3[nH]c(-c4cccc(C(F)(F)F)c4)nc3cn2)nc1 [MMV675939] (system: Plasmodium falciparum 3D7-A10 parasites).
Response: 268 nM

Prompt: Give the reported IC50 for CCCOCc1cc(CN2CCN(c3cccc(Cl)c3)CC2)c(O)c2ncccc12 [MMV000787] (system: Plasmodium falciparum 3D7-A10 parasites).
Response: 7870 nM

Prompt: Give the reported IC50 for COCCNCC(O)Cn1c2ccc(Cl)cc2c2cc(Cl)ccc21 (stereo not drawn) [MMV019017] (system: Plasmodium falciparum 3D7-A10 parasites).
Response: 8660 nM

Prompt: Give the reported IC50 for O=C(Nc1ccsc1C(=O)NC1CCCCC1)c1ccc(F)cc1 [MMV665939] (system: Plasmodium falciparum 3D7-A10 parasites).
Response: 22900 nM

Prompt: Give the reported IC50 for CCOC(=O)C1=C(C)NC2=C(C(=O)CC(c3ccc(OC)c(OC)c3)C2)C1c1ccccc1Cl (stereo not drawn) [GNF-Pf-5660, reference compound] (system: Plasmodium falciparum 3D7-A10 parasites).
Response: 238 nM

Prompt: Give the reported IC50 for CCN(CC)CCn1c(=N)n(CC(O)c2ccc(Cl)c(Cl)c2)c2ccccc21.Cl (stereo not drawn) [MMV000248] (system: Plasmodium falciparum 3D7-A10 parasites).
Response: 6740 nM

Prompt: Give the reported IC50 for COc1cc(-c2nc(-c3ccccc3)c(-c3ccccc3)[nH]2)ccc1OCCN(C)C [MMV027496] (system: Plasmodium falciparum 3D7-A10 parasites).
Response: 878 nM

---

What Log2(fold change) S-adenosyl-L-methioninamine was measured for each of the following?
# Tested on: 3D7-MR4 trophozoite parasite-infected RBCs
# protocol: Metabolomic profiling (hydrophilic metabolite changes, UHPLC-MS)
# Assay type: cell-based, Plasmodium falciparum
# conditionDescription: metabolite S-adenosyl-L-methioninamine
When you answer, write just the number.

Prompt: I'd like to know its Log2(fold change) S-adenosyl-L-methioninamine. The molecule in question is CCCN(CCC)CC(O)COc1ccccc1C(=O)Nc1ccccc1 (stereo not shown)
Response: 0.0000

Prompt: I'd like to know its Log2(fold change) S-adenosyl-L-methioninamine. The molecule in question is C[C@H]1Cc2c([nH]c3cc(Cl)c(F)cc23)[C@@]2(N1)C(=O)Nc1ccc(Cl)cc12 [KAE609, reference compound]
Response: 0.0000

Prompt: I'd like to know its Log2(fold change) S-adenosyl-L-methioninamine. The molecule in question is FC(F)(F)c1cccc(Nc2nc3ccccc3nc2Nc2cccc(C(F)(F)F)c2)c1
Response: 0.0000

Prompt: I'd like to know its Log2(fold change) S-adenosyl-L-methioninamine. The molecule in question is CC(C)C[C@@H](/C=C/S(C)(=O)=O)NC(=O)[C@H](CC(C)C)NC(=O)[C@H](Cc1c[nH]c2ccccc12)NC(=O)CN1CCOCC1 [WLL-vs, reference compound]
Response: 0.0000

Prompt: I'd like to know its Log2(fold change) S-adenosyl-L-methioninamine. The molecule in question is CN(C)c1ccc2nc3ccc(=[N+](C)C)cc-3sc2c1 [Methylene blue, reference compound]
Response: 0.0000

Prompt: I'd like to know its Log2(fold change) S-adenosyl-L-methioninamine. The molecule in question is Cc1ccc(Oc2ncccc2C(=O)Nc2cccc3cccnc23)c(C)c1
Response: -2.2715

Prompt: I'd like to know its Log2(fold change) S-adenosyl-L-methioninamine. The molecule in question is O=C1C(O)=C([C@H]2CC[C@H](c3ccc(Cl)cc3)CC2)C(=O)c2ccccc21 [Atovaquone, reference compound]
Response: 0.0342

Prompt: I'd like to know its Log2(fold change) S-adenosyl-L-methioninamine. The molecule in question is OC(c1cc(C(F)(F)F)nc2c(C(F)(F)F)cccc12)C1CCCCN1 (stereo not shown) [Mefloquine, reference compound]
Response: 0.0000

Prompt: I'd like to know its Log2(fold change) S-adenosyl-L-methioninamine. The molecule in question is COc1cncc(-c2cncc(N3CCN(c4ccncc4)CC3)n2)c1
Response: 0.0000

Prompt: I'd like to know its Log2(fold change) S-adenosyl-L-methioninamine. The molecule in question is CC(C)(C)NCc1cc(Nc2ccnc3cc(Cl)ccc23)c2c(c1O)CCCC2 [Naphtoquine, Naphthoquine, reference compound]
Response: 0.0000

Prompt: I'd like to know its Log2(fold change) S-adenosyl-L-methioninamine. The molecule in question is FC(F)(F)c1ccc(Nc2cc3[nH]c(-c4cccc(C(F)(F)F)c4)nc3cn2)nc1
Response: -0.3534

Prompt: I'd like to know its Log2(fold change) S-adenosyl-L-methioninamine. The molecule in question is Cl.c1ccc2c(NCCCCCCNc3c4c(nc5ccccc35)CCCC4)c3c(nc2c1)CCCC3
Response: 0.0000

Prompt: I'd like to know its Log2(fold change) S-adenosyl-L-methioninamine. The molecule in question is O=C(Nc1ccsc1C(=O)NC1CCCCC1)c1ccc(F)cc1
Response: -2.1855

---

# System: Plasmodium falciparum 3D7-A10 parasites
# protocol: Stage specificity assay (8-h exposure of synchronized stages, IC50^8h)
# Assay type: cell-based
# conditionDescription: most susceptible stages
What IC50^8h relative to IC50^72h value was measured for each of the following?

Prompt: I'd like to know its IC50^8h relative to IC50^72h value. The compound in question is Cc1ccc(Oc2ncccc2C(=O)Nc2cccc3cccnc23)c(C)c1
Response: > 28 fold

Prompt: I'd like to know its IC50^8h relative to IC50^72h value. The compound in question is FC(F)(F)c1ccc(Nc2cc3[nH]c(-c4cccc(C(F)(F)F)c4)nc3cn2)nc1
Response: 2 fold

Prompt: I'd like to know its IC50^8h relative to IC50^72h value. The compound in question is Clc1ccc2c(N3CCN(CCCN4CCN(c5ccnc6cc(Cl)ccc56)CC4)CC3)ccnc2c1 [Piperaquine, reference compound]
Response: ≤ 2 fold

Prompt: I'd like to know its IC50^8h relative to IC50^72h value. The compound in question is O=C(Nc1ccsc1C(=O)NC1CCCCC1)c1ccc(F)cc1
Response: > 28 fold
